Target: mGluR4 (UniProt Q14833)
Experiment: mGluR4 potentiation assay: increase in response to an EC20 concentration of agonist (species not given)
Conditions: EC50 for potentiation of mGluR4; table does not state human or rat
Text: The disclosed compounds and compositions can be evaluated for their ability to act as a potentiator of metabotropic glutamate receptor activity, in particular mGluR4 activity, by any suitable known methodology known in the art. […] The cells were loaded with either a Ca2+-sensitive fluorescent dye or the thallium responsive dye and the plates were washed and placed into a suitable kinetic plate reader. […]
Experimental Endpoint: EC50 (nM)

INSERT INTO results (compound, result_value) VALUES
  ('Cn1nc(OCC2COC2)c2ccc(Nc3n[nH]c4cccnc34)cc21 [Example 195]', 96.6);

[P] CC(c1nn(C)c2cc(Nc3n[nH]c4cccnc34)ccc12)C(F)(F)F (stereo not shown) [Example 46]
[Q] CC(=O)c1nn(C)c2cc(Nc3n[nH]c4cccnc34)ccc12 [Example 21]
[R] CCCn1nc(C)c2cc(Nc3n[nH]c4cccnc34)ccc21 [Example 113]
[S] [2H]C([2H])([2H])n1nc(C2CC2)c2ccc(Nc3n[nH]c4cccnc34)cc21 [Example 23]
[T] Cc1nn(Cc2noc3ccccc23)c2ccc(Nc3n[nH]c4cccnc34)cc12 [Example 92]
Please give the order of these compounds when sorted by EC50, largest value leading. Use the labels to give the ranking in the order requested.
Q, P, R, T, S
